# assayed_target: T1, cyno TIGIT on cells (cynomolgus macaque)
# T1 construct: whole, on cells; also called Expi293 cyno TIGIT over-expressing cells
# assay_info: FACS titration of AF647-labelled mAb on cyno effector memory CD8+ T cells, Cyno Donor 3; isotype gMFI subtracted
metric_name: Kd (nM)
Give the quantity in nM, number only.

Examples with answers:
CPA.9.086.H4(S241P) (antibody, human IgG4 S228P, lambda, V domains shown) VH: EVQLVETGGGLIQPGRSLRLSCAASGFTFSSYAMHWVRQAPGKGLEWVAVISYAGEVKYYADSVKGRFTISRDNSKNTLYLQMNSLRAEDTAVYYCARDPLPLHYYGMDVWGQGTTVTVSS VL: QSALTQPRSASGNPGQRVTISCSGSSSNMGRRPVNWYQQIPGTAPKLLIYSQNQRPSGVPDRFSGSQSGTSASLTISGLQSEDEAEYFCAVWDDIGRVLQLGGGTQLAVLG :: 0.98
CPA.9.103 (antibody, human IgG4 S228P, kappa, V domains shown, AF647 dye on the antibody in the FACS assay of FIG. 73, fab form is m92; also called CPA.9.103.H4(S241P)) VH: EVQLVETGGGLIQPGGSLRLSCAASGFTVSSNYMSWVRQAPGKGLEWVSVIYSGGSTYYADSVKGRFTISRDNSKNTLYLQMNSLRAEDTAVYYCARGARPNGQYPYWGQGTLVTVSS VL: DIQLTQSPSFLSASVGDRVTITCRASHGIKSLFSWYQQKPGKAPKLLIYAASTLQTGVPSRFSGSASGTEFTLTISSLQPEDFATYYCLQLDSFPTWTFGQGTKVEIKR :: 25
CPA.9.083.H4(S241P) (antibody, human IgG4, V domains shown) VH: EVQLVETGGGLIQPGRSLRLSCAASGFTFSSYAMHWVRQAPGKGLEWVAVISYDGTPVYYADSVKGRFTISRDNSKNTLYLQMNSLRAEDTAVYYCARDPLPLHYYGMDVWGQGTTVTVSS VL: QSALTQPRSASGNPGQRVTISCSGSSSNMGRRPVNWYQQIPGTAPKLLIYSQNQRPSGVPDRFSGSQSGTSASLTISGLQSEDEAEYFCAVWDGDRRSLQLGGGTQLAVLG :: 0.88
BM26 hIgG4 (antibody, V domains shown, benchmark anti-human TIGIT antibody, human IgG4 with S241P; also called BM26-H4; WO2016/028656A1 Clone 3106 as hIgG4) VH: EVQLQQSGPELVKPGSSVKMSCKASGYTFSSYVMHWVKQKPGQGLEWIGYIDPYNDGAKYNEKFKGKATLTSDKSSSTAYMELSSLTSEDSAVYYCARGGPYGWYFDVWGAGTTVTVSS VL: DIQMTQSPASLSASVGETVTITCRASEHIYSYLSWYQQKQGKSPQLLVYNAKTLAEGVPSRFSGSGSGTQFSLKINSLQPEDFGTYYCQHHFGSPLTFGAGTTLELKR :: 7.5

Next item in the queue.
[ask] Would you kindly share the measured Kd for CHA.9.547.1 (antibody, human IgG4 S228P, kappa, V domains shown, AF647 dye on the antibody in the FACS assay of FIG. 73, also called CHA.9.547.1.H4(S241P)) VH: EVQLVESGGGLVQPGGSLRLSCAASGFTFSSYIMSWVRQAPGKGLEWVSTISGGGTNTYYADSVKGRFTISRDNSKNTLYLQMNSLRAEDTAVYYCAKWLLSYYAMDYWGQGTLVTVSS VL: DIQMTQSPSSLSASVGDRVTITCRASQNINVWLTWYQQKPGKAPKLLIYKASNLHTGVPSRFSGSGSGTDFTLTISSLQPEDFATYYCQQGQSYPYTFGQGTKLEIKR ?
[reply] 19

Source listed as patent US20240075137A1.
